# procedure-text: melting temperature; melt of duplexes
# stated-conditions: sodium 0.0675 M; strand 1 µM
For each of the substances below, state its Tm.
One number for each entry, in °C.

// known answers, use as guide
• CGACGTGCGGGATGTGCTG+CAGCACATCATGCACGTCG ((((((((..(((((((((+)))))))))..)))))))) = 57
• CGACGTGCGCCATGTGCTG+CAGCACATGGGGCACGTCG ((((((((.((((((((((+)))))))))).)))))))) = 63.2

// next item, Tm requested
Give me measured Tm, please, for this substance: CGACGTGCCTAATGTGCTG+CAGCACATTTTGCACGTCG ((((((((..(((((((((+)))))))))..))))))))
51.1
